Hi there, I'd appreciate the recorded exon inclusion enrichment index for every entry that follows.
B1: mRNA-splicing (parent)
chain: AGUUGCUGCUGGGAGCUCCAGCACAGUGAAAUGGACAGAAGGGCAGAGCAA

Variants of: B1
EXPERIMENTAL_DETAILS: exon inclusion enrichment index; higher = more inclusion; WT1 exon 5 minigene, HEK293
Give the figure only, with no unit attached.

Need exon inclusion enrichment index of G5U G8U C9U A45G G46A , thanks.
0.672

Queued: C6A U7C C9A U10C U32A G33C
3.5

Queued: G5U G8A
1.23

Queued: G5C G8U C9U
0.0356

Queued: U3G U4C
0.16

Queued: G5C C6G U7C C9A
2.73

Queued: G5C C6G U7C U10C C18A C19A
1.63

Queued: G5A C6U U7A G8U C9A U10G
0.00356

Queued: G5A C6G U7G C9A G12U
0.00152

Queued: G5A U7C G8A U10C A39G A40G
0.26

Queued: G5A C6G U7G C9A G41A G42A
0.0013

Queued: G5U G8U C9U C44A A45U
0.41

Queued: G5U G8U C9U G11A G12U
0.00501

Queued: U3G U4G C6A U7A C9A U10A
0.0489

Queued: G5C C6G U7C U10C A37G G38C
3.22

Queued: G5C C6G U7C U10C A35C C36U
0.625

Queued: G5C C6G U7C U10C G42U G43U
4.33

Queued: G5A C6G U7G C9A A37U G38A
0.00155

Queued: G5A C6U U7A G8U C9A A23C
0.0335

Queued: G5U G8U C9U U10A G11A
0.0324

Queued: G5A C6U U7A G8U C9A G15U C16A
0.0179

Queued: G5A U7C G8A U10C A47G
0.395

Queued: G5U G8U C9U G46A A47C
0.466

Queued: G5A C6G U7G C9A A20C G21A
0.00106

Queued: C6A U7A C9A U10A G43A C44A
1.84

Queued: G5U G8U C9U G26U U27G
0.458

Queued: U4A G5A C6A U7A C9A U10A
0.0853

Queued: G5C C6A U7G G8C U10A
0.0276

Queued: C6A U7C C9A U10C A47C G48C
2.81

Queued: G5C C6G U7C U10C A39C A40G
3.52
